Recorded log10(Ki) for the following compounds
# tested system: rat TAAR1 (Rattus norvegicus (Rat))
# protocol text: Radioligand binding assay on rat TAAR1
# setup conditions: read-out: Ki(μM) rat; rat TAAR1, HEK-293 membranes, second value of cell pair mouse/rat
All values: base-10 log of Ki in µM.

// below: answered compounds
| given smiles | log10(Ki) |
| --- | --- |
| CN(c1ccc(NC(=O)c2ccnc(C(F)(F)F)c2)cc1)C1CNC1 | -0.68 |
| O=C(Nc1ccc(SC2CNC2)cc1)c1cnc(C2CC2)nc1 | -0.78 |
| FC(F)(F)c1cnc(Nc2ccc(C=C3CNC3)cc2)nc1 | -1.41 |
| CCOc1ccc(C(=O)Nc2ccc(CC3(F)CNC3)cc2)nn1 | -1.01 |

Exercise: # log10(Ki) lookup, item O=C(Nc1ccc(OC2CNC2)c(F)c1)c1cnc(C(F)(F)F)nc1
Solution: -1.62

Exercise: Now try O=C(Nc1ccc(C=C2CNC2)cc1)c1cnc(C(F)(F)F)nc1 .
Solution: -2.10

----------
# tested system: rat TAAR1 (Rattus norvegicus (Rat), UniProt Q923Y9)
# Sequence (Q923Y9 whole entry): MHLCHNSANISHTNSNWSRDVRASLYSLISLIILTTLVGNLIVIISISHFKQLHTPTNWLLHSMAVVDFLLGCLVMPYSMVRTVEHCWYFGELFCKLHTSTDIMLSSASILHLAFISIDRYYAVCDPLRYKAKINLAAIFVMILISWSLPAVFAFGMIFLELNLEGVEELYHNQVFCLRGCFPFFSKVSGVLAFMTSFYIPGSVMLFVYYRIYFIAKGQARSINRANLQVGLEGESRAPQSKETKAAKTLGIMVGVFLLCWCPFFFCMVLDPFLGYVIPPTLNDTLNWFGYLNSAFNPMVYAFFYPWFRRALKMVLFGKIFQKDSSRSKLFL
# protocol text: Radioligand binding assay on rat TAAR1
# setup conditions: read-out: Ki(μM) rat; rat TAAR1, HEK-293 membranes, second value of cell pair mouse/rat
quantity kind: Ki (µM)
Answer format: numeric, µM implied, no suffix.

| molecule | Ki (µM) |
| --- | --- |
| O=C(Nc1ccc(C=C2CNC2)cc1)c1ccc(Cl)nc1 [Example 65] | 0.023 |

Exercise: What value of Ki has been recorded for this entry: O=C(Nc1ccc(OC2CNC2)cc1)c1cc(C2CC2)n[nH]1 [Example 10]
Solution: 0.0887

Exercise: Same lookup for FC(F)(F)c1cnc(Nc2ccc(OC3CNC3)cc2)nc1 [Example 9] , please.
Solution: 0.105

Exercise: Entry O=C(Nc1ccc(Cl)cc1)c1ccc(OC2CNC2)cc1 [Example 23] please
Solution: 0.038

Exercise: Another molecule: COc1ccc(NC(=O)Nc2ccc(OC3CNC3)cc2)cc1 [Example 108]
Solution: 0.0269

Exercise: Same lookup for CCc1n[nH]c(C(=O)Nc2ccc(C=C3CNC3)c(F)c2)c1C [Example 88] , please.
Solution: 0.005

Exercise: Another molecule to look at: CCc1n[nH]c(C(=O)Nc2ccc(CC3(F)CNC3)cc2)c1Cl [Example 66]
Solution: 0.0824

Exercise: Ok, now O=C(Nc1ccc(Cl)nc1)c1ccc(OC2CNC2)cc1 [Example 30]
Solution: 0.527

Exercise: Another molecule to look at: O=C(Nc1ccc(CC2(F)CNC2)cc1)c1n[nH]c(C2CC2)c1Cl [Example 56]
Solution: 0.0151

Exercise: Entry O=C(Nc1ccc(C[C@@H]2CCN2)cc1)c1ccc(Cl)nc1 [Example 79] please
Solution: 0.348

Exercise: Try this molecule next: O=C(Nc1ccc(C[C@H]2NC[C@H]2F)cc1)c1ccnc(C(F)(F)F)c1 [Example 121]
Solution: 0.809

Exercise: Similarly, CC(C)c1cc(C(=O)Nc2ccc(OC3CNC3)cc2)[nH]n1 [Example 12] ?
Solution: 0.0927

----------
# tested system: rat TAAR1 (Rattus norvegicus (Rat))
# protocol text: Radioligand binding assay on rat TAAR1
# setup conditions: read-out: Ki(μM) rat; rat TAAR1, HEK-293 membranes, second value of cell pair mouse/rat
Recorded measurements of Ki, one per entry
Please respond with the number in µM and leave the unit unwritten.

| molecule | Ki (µM) |
| --- | --- |
| O=C(Nc1ccc(C[C@@H]2NC[C@@H]2F)cc1)c1cnc(C(F)(F)F)nc1 | 0.0156 |
| O=C(Nc1ccc(C[C@@H]2NC[C@@H]2F)cc1)c1cnc(C2CC2)nc1 | 0.055 |
| F[C@H]1CN[C@H]1Cc1ccccc1 | 0.274 |
| O=C(Nc1ccc(OC2CNC2)cc1F)c1[nH]nc(C2CC2)c1Cl | 0.029 |

With those in mind, consider the next molecule.
Exercise: # query: Ki of entry O=C(Nc1ccc(C[C@H]2NC[C@H]2F)cc1)c1cnc(C(F)(F)F)nc1
Solution: 0.61

----------
# tested system: UniProt Q923Y8
# Sequence (Q923Y8 whole entry): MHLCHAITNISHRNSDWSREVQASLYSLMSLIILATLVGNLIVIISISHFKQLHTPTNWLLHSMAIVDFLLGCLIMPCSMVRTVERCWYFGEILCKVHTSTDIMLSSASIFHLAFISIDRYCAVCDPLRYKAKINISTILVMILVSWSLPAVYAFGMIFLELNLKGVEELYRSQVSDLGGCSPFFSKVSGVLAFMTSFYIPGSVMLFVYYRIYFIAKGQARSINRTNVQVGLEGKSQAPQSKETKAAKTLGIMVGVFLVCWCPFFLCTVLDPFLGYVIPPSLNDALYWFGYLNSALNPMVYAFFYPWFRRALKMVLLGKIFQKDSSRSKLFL
quantity kind: pKi
Hey, just a heads up that pKi is the negative log base 10 of the concentration in molar.

| compound | tested system | pKi |
| --- | --- | --- |
| O=C(Nc1ccc(SC2CNC2)cc1)Nc1cccc(Cl)c1 [Example 112] | UniProt Q923Y8 | 7.95 |
| O=C(Nc1ccc(CC2(F)CNC2)cc1)c1cnc(OCC(F)(F)F)cn1 [Example 57] | UniProt Q923Y8 | 7.83 |

Exercise: Look at this compound and give its reported pKi. COc1cc(C(=O)Nc2ccc(C[C@H]3NC[C@H]3F)cc2)ccn1 [Example 120]
Solution: 7.99

Exercise: Can you check O=C(Nc1ccc(C=C2CNC2)cc1)c1cnc(C(F)(F)F)nc1 [Example 59] next?
Solution: 8.05

Exercise: Input CC(C)c1cc(C(=O)Nc2ccc(C[C@H]3NC[C@H]3F)cc2)[nH]n1 [Example 125]
Solution: 7.80

----------
Measured pKi on UniProt Q923Y8 follows.
Value format note: pKi is -log10 of concentration (mol/L); just state the number.

The cases that follow already have their pKi on record.
| given smiles | pKi |
| --- | --- |
| O=C(Nc1ccc(OC2CNC2)cc1)c1nn(CC(F)(F)F)cc1Cl | 6.19 |
| CC(C)(C)c1n[nH]c(C(=O)Nc2ccc(OC3CNC3)cc2)c1Cl | 7.87 |

Read the next record carefully.
Exercise: Field request: pKi | item: O=C(Nc1ccc(C[C@H]2NC[C@H]2F)cc1)c1ccnc(C(F)(F)F)c1
Solution: 8.15

----------
# tested system: rat TAAR1 (Rattus norvegicus (Rat), UniProt Q923Y9)
# protocol text: Radioligand binding assay on rat TAAR1
# setup conditions: read-out: Ki(μM) rat; rat TAAR1, HEK-293 membranes, second value of cell pair mouse/rat
Listed here are compounds together with their documented Ki.
The answer is to be given in µM; state only the numeric part.

Solved cases (6 shown):
| compound | result unit | observed measurement |
| --- | --- | --- |
| COc1cc(C(=O)Nc2ccc(C[C@@H]3NC[C@@H]3F)cc2)ccn1 [Example 127] | µM | 0.133 |
| O=C(Nc1ccc(C=C2CNC2)cc1)Nc1ccc(C(F)(F)F)cc1 [Example 116] | µM | 0.0016 |
| Cn1nc(C(F)(F)F)c(Cl)c1C(=O)Nc1ccc(OC2CNC2)cc1 [Example 29] | µM | 0.0503 |
| Cc1cc(C(=O)Nc2cc(F)c(C=C3CNC3)c(F)c2)nc(C(F)(F)F)n1 [Example 82] | µM | 0.0055 |
| O=C(Nc1ccc(CC2CNC2)cc1)Nc1ccc(C(F)(F)F)cc1 [Example 113] | µM | 0.0042 |
| Cc1cc(C(=O)Nc2ccc(C[C@H]3NC[C@H]3F)cc2)nc(C(F)(F)F)n1 [Example 119] | µM | 1.18 |

Exercise: Which Ki reading was recorded for the compound O=C(Nc1ccccc1)c1ccc(OC2CNC2)cc1 [Example 20, 4-(azetidin-3-yloxy)-N-phenyl-benzamide] ?
Solution: 1.03

----------
# tested system: UniProt Q923Y9
# protocol text: Radioligand binding assay on rat TAAR1
# setup conditions: read-out: Ki(μM) rat; rat TAAR1, HEK-293 membranes, second value of cell pair mouse/rat
quantity kind: Ki
Note: a bare number is incomplete; add the unit.

Would you please look over these solved cases?
| compound | Ki |
| --- | --- |
| O=C(Nc1ccc(C=C2CNC2)cc1)c1n[nH]c(C2CC2)c1Cl [Example 58] | 0.0188 µM |
| O=C(Nc1ccc(NC2CNC2)cc1)c1ccnc(C(F)(F)F)c1 [Example 3] | 0.66 µM |
| O=C(Nc1ccc(OC2CNC2)cc1)c1[nH]nc(C2CC2)c1Cl [Example 13] | 0.0178 µM |
| c1ccc(C[C@H]2CCN2)cc1 [Example 89, (S)-2-benzylazetidine] | 0.0822 µM |

Exercise: # query: Ki | item c1ccc(CC2CNC2)cc1 [Example 1, 3-benzylazetidine] | system: UniProt Q923Y9
Solution: 0.701 µM

Exercise: COc1ccc(NC(=O)Nc2ccc(CC3CNC3)cc2)cc1 [Example 114] ?
Solution: 0.156 µM

Exercise: What do you get for Cc1cc(C(=O)Nc2ccc(C=C3CNC3)c(F)c2)nc(C(F)(F)F)n1 [Example 85] ?
Solution: 0.0134 µM

Exercise: Next up: CO[C@@H]1CN[C@H]1Cc1ccccc1 [Example 95, (2S,3R)-2-benzyl-3-methoxyazetidine]
Solution: 0.648 µM

Exercise: O=C(Nc1ccc(C=C2CNC2)cc1)c1ccnc(C(F)(F)F)c1 [Example 60] ?
Solution: 0.0099 µM

Exercise: Then what about the compound O=C(Nc1ccc(OC2CNC2)cc1)c1ccc(Cl)cc1 [Example 4] ?
Solution: 0.0087 µM

Exercise: Proceed to CCOc1ccc(C(=O)Nc2ccc(OC3CNC3)cc2)nn1 [Example 76]
Solution: 0.167 µM

Exercise: Would you kindly repeat that for Brc1ccc(C=C2CNC2)cc1 [Example 50, 3-[(4-bromophenyl)methylene]azetidine] ?
Solution: 0.0998 µM

Exercise: Now the same for CCc1n[nH]c(C(=O)Nc2ccc(OC3CNC3)cc2)c1Cl [Example 41]
Solution: 0.0392 µM

Values compiled from patent US10023559B2.
